Target: human CB1 (hCB1) receptor (Homo sapiens)
Construct: expressed in transfected cells; host or cells: CHO (Chinese hamster ovary) cells, membranes
Test: CB1 binding assay, competitive binding of [3H]CP 55940
Details: at 10 μM; specific binding of [3H]-CP55940
RECORDED ENDPOINT: inhibition at 10 µM (%)
API: value field is a number in %; no unit string.

* CCCCCCN1C(=O)/C(=N\NC(=S)Nc2ccccc2)c2ccccc21 | 49
* O=C(Cc1ccccc1)N/N=C1\C(=O)N(CCC2CCCCC2)c2ccccc21 | 88.8
* CCCCCCN1C(=O)/C(=N\NC(=O)Cc2ccccc2)c2ccccc21 | 98.2
* O=C(N/N=C1\C(=O)N(CCC2CCCCC2)c2ccccc21)c1ccccc1 | 96

Please give measured inhibition at 10 µM of the following entry: CCCCCCN1C(=O)/C(=N\NC(=O)c2ccccc2)c2ccccc21
95.5

----------
Target: human CB2 (hCB2) receptor (Homo sapiens)
Construct: expressed in transfected cells; host or cells: CHO (Chinese hamster ovary) cells, membranes
Test: CB2 binding assay, competitive binding of [3H]WIN 55212-2
Settings: read-out: % inhibition hCB2 receptor, at 10 μM; specific binding of [3H]-WIN55212-2
Attribute: inhibition at 10 µM
API: value field is a number in %; no unit string.

- O=C(N/N=C1\C(=O)N(CCC2CCCCC2)c2ccccc21)c1ccccc1: 79.8
- CCCCCCN1C(=O)/C(=N\NC(=O)c2ccccc2)c2ccccc21: 92.8
- CCCCCCN1C(=O)/C(=N\NC(=O)Cc2ccccc2)c2ccccc21: 91.5

Then there is this molecule:
Please give measured inhibition at 10 µM of the following entry: O=C(Cc1ccccc1)N/N=C1\C(=O)N(CCC2CCCCC2)c2ccccc21
47.2

----------
Attribute: % of Control Specific Binding Mean
Target: human CB1 (hCB1) receptor (Homo sapiens, UniProt P21554)
Construct: expressed in transfected cells; host or cells: CHO (Chinese hamster ovary) cells, membranes
Sequence (P21554 whole entry): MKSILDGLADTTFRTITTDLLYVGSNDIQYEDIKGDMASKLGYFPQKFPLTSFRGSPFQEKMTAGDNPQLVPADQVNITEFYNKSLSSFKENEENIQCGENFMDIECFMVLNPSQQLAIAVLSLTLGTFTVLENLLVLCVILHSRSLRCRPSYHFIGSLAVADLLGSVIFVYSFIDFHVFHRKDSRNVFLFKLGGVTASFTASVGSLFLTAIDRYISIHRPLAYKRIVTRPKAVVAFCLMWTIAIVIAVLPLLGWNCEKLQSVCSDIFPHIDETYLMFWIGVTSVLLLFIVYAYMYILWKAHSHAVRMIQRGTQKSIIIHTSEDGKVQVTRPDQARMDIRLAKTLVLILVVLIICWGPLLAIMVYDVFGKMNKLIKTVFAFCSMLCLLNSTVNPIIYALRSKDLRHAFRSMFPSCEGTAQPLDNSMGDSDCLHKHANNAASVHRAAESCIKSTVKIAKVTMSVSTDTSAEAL
Assay: CB1 binding assay, competitive binding of [3H]CP 55940
Conditions: CB1; Test Concentration 1.0E−05 (MD); mean
API: value field is a number in %; no unit string.

// solved cases for % of Control Specific Binding Mean follow
- O=C(N/N=C1\C(=O)N(CCC2CCCCC2)c2ccccc21)Nc1ccccc1: 66.3
- CCCCCCN1C(=O)/C(=N\NC(=O)c2ccccc2)c2ccccc21: 4.5
- O=C(N/N=C1\C(=O)N(CCC2CCCCC2)c2ccccc21)c1ccccc1: 4
- CCCCCCN1C(=O)/C(=N\NC(=O)Nc2ccccc2)c2ccccc21: 62.9
- CCCCCCN1C(=O)/C(=N\NC(=S)Nc2ccccc2)c2ccccc21: 51
- CCCCCCN1C(=O)/C(=N\NS(=O)(=O)c2ccccc2)c2ccccc21: 91.9
- O=C1/C(=N\NC(=S)Nc2ccccc2)c2ccccc2N1CCC1CCCCC1: 64.1
- CCCCCCN1C(=O)/C(=N\NC(=O)Cc2ccccc2)c2ccccc21: 1.8

Then there is this compound:
Please give measured % of Control Specific Binding Mean of the following entry: O=C1/C(=N\NS(=O)(=O)c2ccccc2)c2ccccc2N1CCC1CCCCC1
83.6

----------
Biological target: human CB1 (hCB1) receptor (Homo sapiens, UniProt P21554)
Construct: expressed in transfected cells; host or cells: CHO (Chinese hamster ovary) cells, membranes
Experiment: CB1 binding assay, competitive binding of [3H]CP 55940
Details: CB1; Test Concentration 1.0E−05 (MD); 1st determination
Response field label takes 1 when % of Control Specific Binding 1st is strictly below 50% and 0 in all other cases.

Solved entries:
• O=C1/C(=N\NS(=O)(=O)c2ccccc2)c2ccccc2N1CCC1CCCCC1 [Example 8] = 0
• CCCCCCN1C(=O)/C(=N\NC(=O)Nc2ccccc2)c2ccccc21 [Example 4] = 0
• CCCCCCN1C(=O)/C(=N\NS(=O)(=O)c2ccccc2)c2ccccc21 [Example 9] = 0

Below 50% on % of Control Specific Binding 1st? Entry O=C(N/N=C1\C(=O)N(CCC2CCCCC2)c2ccccc21)c1ccccc1 [Example 5]
1

Below 50% on % of Control Specific Binding 1st? Entry CCCCCCN1C(=O)/C(=N\NC(=S)Nc2ccccc2)c2ccccc21 [Example 2]
1

Below 50% on % of Control Specific Binding 1st? Entry O=C(N/N=C1\C(=O)N(CCC2CCCCC2)c2ccccc21)Nc1ccccc1 [Example 3]
0

Below 50% on % of Control Specific Binding 1st? Entry CCCCCCN1C(=O)/C(=N\NC(=O)c2ccccc2)c2ccccc21 [Example 6]
1

Below 50% on % of Control Specific Binding 1st? Entry CCCCCCN1C(=O)/C(=N\NC(=O)Cc2ccccc2)c2ccccc21 [Example 7]
1

Below 50% on % of Control Specific Binding 1st? Entry O=C1/C(=N\NC(=S)Nc2ccccc2)c2ccccc2N1CCC1CCCCC1 [Example 1]
0

----------
Biological target: human CB2 (hCB2) receptor (Homo sapiens, UniProt P34972)
Construct: expressed in transfected cells; host or cells: CHO (Chinese hamster ovary) cells, membranes
Sequence (P34972 whole entry): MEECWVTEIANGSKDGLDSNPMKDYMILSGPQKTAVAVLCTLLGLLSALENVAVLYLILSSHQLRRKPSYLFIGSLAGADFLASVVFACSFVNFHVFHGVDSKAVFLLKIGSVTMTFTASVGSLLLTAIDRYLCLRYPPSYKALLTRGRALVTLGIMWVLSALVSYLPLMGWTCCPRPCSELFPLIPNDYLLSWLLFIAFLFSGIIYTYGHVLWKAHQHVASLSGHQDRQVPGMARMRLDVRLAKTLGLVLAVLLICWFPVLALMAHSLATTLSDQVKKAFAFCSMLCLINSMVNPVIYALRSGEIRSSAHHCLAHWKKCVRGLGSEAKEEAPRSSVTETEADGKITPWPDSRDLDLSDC
Assay: CB2 binding assay, competitive binding of [3H]WIN 55212-2
Conditions: CB2; Test Concentration 1.0E−05 (MD); 1st determination
RECORDED ENDPOINT: % of Control Specific Binding 1st (%)
API: value field is a number in %; no unit string.

// solved cases for % of Control Specific Binding 1st follow
* O=C(N/N=C1\C(=O)N(CCC2CCCCC2)c2ccccc21)c1ccccc1 | 13.9
* O=C(N/N=C1\C(=O)N(CCC2CCCCC2)c2ccccc21)Nc1ccccc1 | 98.6
* CCCCCCN1C(=O)/C(=N\NC(=O)Cc2ccccc2)c2ccccc21 | 8.4
* O=C1/C(=N\NC(=S)Nc2ccccc2)c2ccccc2N1CCC1CCCCC1 | 83.3
* CCCCCCN1C(=O)/C(=N\NC(=O)Nc2ccccc2)c2ccccc21 | 105.7
* CCCCCCN1C(=O)/C(=N\NC(=O)c2ccccc2)c2ccccc21 | −1.5

Please give measured % of Control Specific Binding 1st of the following entry: CCCCCCN1C(=O)/C(=N\NS(=O)(=O)c2ccccc2)c2ccccc21
126.5

Please give measured % of Control Specific Binding 1st of the following entry: O=C1/C(=N\NS(=O)(=O)c2ccccc2)c2ccccc2N1CCC1CCCCC1
89.2

Please give measured % of Control Specific Binding 1st of the following entry: CCCCCCN1C(=O)/C(=N\NC(=S)Nc2ccccc2)c2ccccc21
59.8

----------
Attribute: inhibition at 1 µM
Target: human CB1 (hCB1) receptor (Homo sapiens, UniProt P21554)
Construct: expressed in transfected cells; host or cells: CHO (Chinese hamster ovary) cells, membranes
Experiment: CB1 binding assay, competitive binding of [3H]CP 55940
Conditions: at 1 μM; specific binding of [3H]-CP55940; CHO membranes

// solved cases for inhibition at 1 µM follow
- CCCCCCN1C(=O)/C(=N\NC(=O)c2ccccc2)c2cccc(C)c21: 67%
- CCCCCCN1C(=O)/C(=N\NC(=O)c2ccc(Cl)cc2)c2ccccc21: 46.6%
- CCCCCCN1C(=O)/C(=N\NC(=O)OC(C)(C)C)c2ccccc21: 85.1%

Please give measured inhibition at 1 µM of the following entry: CCCN1C(=O)/C(=N\NC(=O)c2ccccc2)c2ccccc21
43%

Please give measured inhibition at 1 µM of the following entry: CCCCCN1C(=O)/C(=N\NC(=O)c2ccccc2)c2cc(I)ccc21
25%

Please give measured inhibition at 1 µM of the following entry: CCCCCCN1C(=O)/C(=N\NC(=O)c2ccccc2)c2cc(Cl)ccc21
9%

Please give measured inhibition at 1 µM of the following entry: CCCCCCN1C(=O)/C(=N\NC(=O)c2ccc3ccccc3c2)c2ccccc21
< 30%

Please give measured inhibition at 1 µM of the following entry: CCCCCCN1C(=O)/C(=N\NC(=O)c2cccc3ccccc23)c2ccccc21
> 80%

Please give measured inhibition at 1 µM of the following entry: CCCCCCN1C(=O)/C(=N\NC(=O)C2CCCCC2)c2ccccc21
65.8%

----------
Target: human CB2 (hCB2) receptor (Homo sapiens, UniProt P34972)
Construct: expressed in transfected cells; host or cells: CHO (Chinese hamster ovary) cells, membranes
Assay: CB2 binding assay, competitive binding of [3H]WIN 55212-2
Conditions: CB2; Test Concentration 1.0E−05 (MD)
Attribute: % Inhibition of Control Specific Binding
API: value field is a number in %; no unit string.

Identify measured % Inhibition of Control Specific Binding obtained with human CB2 (hCB2) receptor (Homo sapiens, UniProt P34972) for CCCCCCN1C(=O)/C(=N\NS(=O)(=O)c2ccccc2)c2ccccc21 .
−14

Identify measured % Inhibition of Control Specific Binding obtained with human CB2 (hCB2) receptor (Homo sapiens, UniProt P34972) for CCCCCCN1C(=O)/C(=N\NC(=O)Nc2ccccc2)c2ccccc21 .
−8

Identify measured % Inhibition of Control Specific Binding obtained with human CB2 (hCB2) receptor (Homo sapiens, UniProt P34972) for O=C(N/N=C1\C(=O)N(CCC2CCCCC2)c2ccccc21)c1ccccc1 .
80

Identify measured % Inhibition of Control Specific Binding obtained with human CB2 (hCB2) receptor (Homo sapiens, UniProt P34972) for O=C(N/N=C1\C(=O)N(CCC2CCCCC2)c2ccccc21)Nc1ccccc1 .
−3

Identify measured % Inhibition of Control Specific Binding obtained with human CB2 (hCB2) receptor (Homo sapiens, UniProt P34972) for O=C1/C(=N\NS(=O)(=O)c2ccccc2)c2ccccc2N1CCC1CCCCC1 .
9

Identify measured % Inhibition of Control Specific Binding obtained with human CB2 (hCB2) receptor (Homo sapiens, UniProt P34972) for CCCCCCN1C(=O)/C(=N\NC(=O)c2ccccc2)c2ccccc21 .
93

Identify measured % Inhibition of Control Specific Binding obtained with human CB2 (hCB2) receptor (Homo sapiens, UniProt P34972) for O=C1/C(=N\NC(=S)Nc2ccccc2)c2ccccc2N1CCC1CCCCC1 .
15

Identify measured % Inhibition of Control Specific Binding obtained with human CB2 (hCB2) receptor (Homo sapiens, UniProt P34972) for CCCCCCN1C(=O)/C(=N\NC(=S)Nc2ccccc2)c2ccccc21 .
38

Identify measured % Inhibition of Control Specific Binding obtained with human CB2 (hCB2) receptor (Homo sapiens, UniProt P34972) for CCCCCCN1C(=O)/C(=N\NC(=O)Cc2ccccc2)c2ccccc21 .
92
